Reference source for all entries: paper PMC10397247

Biological target: T1, 4H2729-bA
T1 chain: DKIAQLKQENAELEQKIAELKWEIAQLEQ
Assay: two-hybrid library CCNG1;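 further: natural log of median RNA to DNA barcode read ratio; higher means stronger binding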
result.type: interaction score

> print(dat)
                                     binder        result.type  result.number
1  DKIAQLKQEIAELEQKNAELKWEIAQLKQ [4H2618-bA]  interaction score           1.35
2  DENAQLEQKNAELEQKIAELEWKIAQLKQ [4H1446-bA]  interaction score           1.08

[P] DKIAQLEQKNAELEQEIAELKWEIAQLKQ [4H2442-bA]
[Q] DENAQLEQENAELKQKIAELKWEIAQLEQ [4H1257-bA]
stdin: # min-compare on interaction score between P and Q Write down the label attached to your selection.
stdout: Q
